src = PubChem BioAssay AID488969

biological target: Metabotropic glutamate receptor 8 (Rattus norvegicus); assay: mGluR8 Gi/Go-coupled signaling modulation – cell-based, rat, thallium flux, HTS, primary screen (AID 488969); conditions: HEK293 rat mGluR8, GIRK thallium flux, FluoZin2; at 10 µM; stronger effect = higher value; submaximal glutamate (EC20) added with thallium
Over roughly 110,000 compounds, “z-score” has its median near -0.1; the highest 2% begin near 2. For the sample, the highest values were picked, then their nearest neighbours and some compounds at random.
property.measured: z-score
Could you respond with only the numeric value?

Measured z-score, COc1ccc(N(C(=O)c2cnsn2)C(C(=O)NC2CCCCC2)c2ccncc2)cc1 (stereo unspecified) : 0.0313

Measured z-score, `COc1cc(/C=C2\SC(=S)NC2=O)ccc1OS(=O)(=O)c1ccccc1` : 15.1

Measured z-score, `COc1ccc(/C=C2\SC(=O)N=C2N)cc1OC` : 0.0136

Measured z-score, Cc1ccc(NC(=O)C2CC(=O)OC23CCOC(C)(C)C3)cc1 (stereo unspecified) : -0.427

Measured z-score, `O=C(Nc1ccncc1)c1cccc(F)c1` : 0.415

Measured z-score, `CCOC(=O)c1c(NC(=O)CCN2C(=O)c3ccccc3C2=O)sc(C(=O)OC(C)C)c1C` : -0.193

Measured z-score, `CCN(CCNC(=O)C1CCN(Cc2nc(-c3ccc(Cl)cc3)oc2C)CC1)c1ccccc1` : 1.3

Measured z-score, `COc1cc(OC)c(OC)cc1/C=N/NC(=O)c1ccc(=O)n(C)c1` : -0.238

Measured z-score, `CCOc1cc(/C=C2/NC(=O)N(CC(=O)Nc3cccc(C)c3)C2=O)ccc1O` : -0.784

Measured z-score, Cc1ccc(C)n1-c1ccc(C(=O)NCC2CCCO2)cc1 (stereo unspecified) : -0.25

Measured z-score, `COc1ccc(/C=C2\SC(c3ccc(C)cc3)=NC2=O)cc1OC` : -1.87

---

target: Metabotropic glutamate receptor 8 (Rattus norvegicus); experiment: mGluR8 Gi/Go-coupled signaling modulation – cell-based, rat, thallium flux, HTS, primary screen (AID 488969); details: HEK293 rat mGluR8, GIRK (G protein-gated inwardly rectifying potassium channel) thallium flux, FluoZin2; at 10 µM; stronger effect = higher value; submaximal glutamate (EC20) added with thallium
The full ranking holds about 110,000 compounds; the median of “z-score” is about -0.1, and the highest 2% start at about 2. Many of the other results were omitted from the sample, so the highest values are more common in it than they were.
property.measured: z-score
Could you respond with only the numeric value?

Measured z-score, `Cc1ccccc1CSCC(=O)Nc1c(C)n(C)n(-c2ccccc2)c1=O` : -0.0609

Measured z-score, `O=C(CSc1nc2ccccc2c(=O)n1-c1ccc(F)cc1)Nc1ccc(N2CCOCC2)cc1` : -0.000577

Measured z-score, `Cc1ccc(S(=O)(=O)NCCCCCC(N)=O)cc1` : 0.00872

Measured z-score, Cc1ccc(S(=O)(=O)NCC(C)NS(C)(=O)=O)cc1 (centres undefined) : -0.186

Measured z-score, `Cc1cc(C)nc(-n2nc(C)cc2Nc2ccccc2)n1` : -0.115

Measured z-score, `CCOC(=O)c1ccccc1NC(=O)COC` : -0.129

Measured z-score, Cc1ccc(S(=O)(=O)NCC(C)NS(=O)(=O)c2ccc(C)cc2)cc1 (centres undefined) : 2.8

Measured z-score, `Cc1ccc(Nc2cc(C)nn2-c2nc(C)cc(C)n2)cc1` : 0.547

Measured z-score, `CC(=O)n1cc(Nc2ccccc2C(=O)O)c2ccccc21` : -1.18

Measured z-score, `CCSc1nc2[nH]ncc2c(=O)[nH]1` : -0.145

Measured z-score, `c1ccc(-n2c(SCc3nc(-c4cccs4)no3)nnc2-c2ccco2)cc1` : -1.55

Measured z-score, `COc1ccc(S(=O)(=O)NC(C(C)C)C(C)C)cc1OC` : 0.101

Measured z-score, `CCOCCCNc1nc2ccccc2[nH]1` : -0.0367

Measured z-score, `COc1ccc(NC(=O)CSc2nc(N)c3cc4c(nc3n2)CCCC4)cc1` : -0.916

Measured z-score, `N#Cc1cc(C(=O)c2ccccc2OCC(=O)Nc2ccccc2Cl)cn(C2CCCCC2)c1=O` : -0.433

Measured z-score, Cc1cc(C)cc(SCc2noc(C(=O)NCC3CCCO3)c2C(=O)O)c1 (centres undefined) : -0.238

Measured z-score, `O=S(=O)(c1ccc(N2CCC(c3ccc(Cl)cc3)=N2)cc1)N(CCO)CCO` : -0.748

Measured z-score, `COc1ccccc1N1CCN(C(=O)Cn2c(=O)[nH]c3ccsc3c2=O)CC1` : -0.563

Measured z-score, `CCOC(=O)c1ccccc1Nc1cn(C(C)=O)c2ccccc12` : 2.73

Measured z-score, CC(C)OC(=O)C1C2C=CC3(CN(Cc4cccs4)C(=O)C13)O2 (centres undefined) : 0.0334

Measured z-score, `Cc1cc(Cl)ccc1NC(=S)NCc1ccccc1Cl` : 0.000558

Measured z-score, `CC(C)c1ccc(Oc2cccc(C(=O)/C(C#N)=C/N(C)C)c2)cc1` : -0.286

Measured z-score, `O=C(NCc1ccccc1Cl)c1ccccc1Oc1ccccc1` : -0.412

Measured z-score, Cc1noc2c1C(c1ccc(N(C)C)cc1)C1=C(CC(C)(C)CC1=O)N2 (centres undefined) : -0.142
